tested on: Septoria tritici; assay: Test C: wheat leaf blotch, preventive spray on wheat seedlings, visual disease rating; assay type: in vivo; conditions: Zymoseptoria tritici, 504 h, 200 ppm, 100 = 100% disease control, 0 = no control
RECORDED_ENDPOINT: pest or weed control at 200 ppm (%)
Please respond with the number in % and leave the unit unwritten.

Query (molecule): COc1cc(OC)cc(-c2c(C(C)(C)O)cnc(C)c2-c2c(F)cc(OC)cc2F)c1 ; field requested: pest or weed control at 200 ppm
95

Same read-out for COc1cc(OC)cc(-c2c(-c3ccccc3F)c[n+]([O-])c(C)c2-c2ccc(F)cc2)c1 ?
100

Try C=C(C)c1cnc(C)c(-c2ccc(F)cc2)c1-c1cc(OC)cc(OC)c1 next.
100

Same again, this time with COc1cc(OC)cc(-c2c(CO)cnc(C)c2-c2c(F)cc(F)cc2F)c1
94
